Consider the following compounds; for each one, report its Salivary glands, accumulated activity.
system: KB tumor-bearing athymic nude mice; test: Biodistribution of 177Lu-RedFols in KB tumor-bearing mice; type: in vivo, mouse; conditions: 24 h p.i.
Give bare numbers, in % IA/g.

Past entries and their recorded results:
[
  {
    "compound": "CN1c2c(nc(N)[nH]c2=O)NCC1CNc1ccc(C(=O)NC(CCC(=O)NC(CCCCNC(=O)CN2CCN(CC(=O)[O-])CCN(CC(=O)[O-])CCN(CC(=O)[O-])CC2)C(=O)NC(CCCCNC(=O)c2ccc(CNC(=O)CCCc3ccc(I)cc3)cc2)C(=O)O)C(=O)O)cc1.[177Lu+3] (stereo not drawn) [[^177Lu]Lu-6S-RedFol-3]",
    "studySystem": "KB tumor-bearing athymic nude mice",
    "observedResult": 2.3
  },
  {
    "compound": "CN1c2c(nc(N)[nH]c2=O)NCC1CNc1ccc(C(=O)NC(CCC(=O)NC(CCCCNC(=O)CN2CCN(CC(=O)[O-])CCN(CC(=O)[O-])CCN(CC(=O)[O-])CC2)C(=O)NC(CCCCNC(=O)c2ccc(CNC(=O)CCCCc3ccc(I)cc3)cc2)C(=O)O)C(=O)O)cc1.[177Lu+3] (stereo not drawn) [[^177Lu]Lu-6S-RedFol-25]",
    "studySystem": "KB tumor-bearing athymic nude mice",
    "observedResult": 0.49
  },
  {
    "compound": "CN1c2c(nc(N)[nH]c2=O)NC[C@H]1CNc1ccc(C(=O)N[C@@H](CCC(=O)N[C@@H](CCCCNC(=O)CN2CCN(CC(=O)O)CCN(CC(=O)O)CCN(CC(=O)O)CC2)C(=O)N[C@@H](CCCCNC(=O)c2ccc(CNC(=O)CCCCc3ccc(I)cc3)cc2)C(=O)O)C(=O)O)cc1 [[^177Lu]Lu-6R-RedFol-25, metal not drawn]",
    "studySystem": "KB tumor-bearing athymic nude mice",
    "observedResult": 3.1
  },
  {
    "compound": "CN1c2c(nc(N)[nH]c2=O)NC[C@H]1CNc1ccc(C(=O)N[C@@H](CCC(=O)N[C@@H](CCCCNC(=O)CN2CCN(CC(=O)O)CCN(CC(=O)O)CCN(CC(=O)O)CC2)C(=O)N[C@@H](CCCCNC(=O)c2ccc(CNC(=O)CCCc3ccc(I)cc3)cc2)C(=O)O)C(=O)O)cc1 [[^177Lu]Lu-6R-RedFol-3, metal not drawn]",
    "studySystem": "KB tumor-bearing athymic nude mice",
    "observedResult": 4.0
  }
]

// moving on: another record for Salivary glands, accumulated activity
Request the reported Salivary glands, accumulated activity associated with CN1c2c(nc(N)[nH]c2=O)NC[C@H]1CNc1ccc(C(=O)N[C@@H](CCC(=O)N[C@@H](CCCCNC(=O)CN2CCN(CC(=O)O)CCN(CC(=O)O)CCN(CC(=O)O)CC2)C(=O)N[C@@H](CCCCNC(=O)CCCCc2ccc(I)cc2)C(=O)O)C(=O)O)cc1 [[^177Lu]Lu-6R-RedFol-24, metal not drawn]
4.5

---

Consider the following compounds; for each one, report its Muscle, accumulated activity.
system: KB tumor-bearing athymic nude mice; assay: Biodistribution of 177Lu-RedFols in KB tumor-bearing mice; type: in vivo, mouse; details: 1 h p.i.
Just the number plus its unit, please.

[
  {
    "compound": "CN1c2c(nc(N)[nH]c2=O)NC[C@H]1CNc1ccc(C(=O)N[C@@H](CCC(=O)N[C@@H](CCCCNC(=O)CN2CCN(CC(=O)O)CCN(CC(=O)O)CCN(CC(=O)O)CC2)C(=O)N[C@@H](CCCCNC(=O)CCCCc2ccc(I)cc2)C(=O)O)C(=O)O)cc1 [[^177Lu]Lu-6R-RedFol-24, metal not drawn]",
    "studySystem": "KB tumor-bearing athymic nude mice",
    "Muscle, accumulated activity": "1.4 ± 0.1 % IA/g"
  }
]

// moving on: another record for Muscle, accumulated activity
Request the reported Muscle, accumulated activity associated with CN1c2c(nc(N)[nH]c2=O)NC[C@H]1CNc1ccc(C(=O)N[C@@H](CCC(=O)N[C@@H](CCCCNC(=O)CN2CCN(CC(=O)O)CCN(CC(=O)O)CCN(CC(=O)O)CC2)C(=O)N[C@@H](CCCCNC(=O)c2ccc(CNC(=O)CCCCc3ccc(I)cc3)cc2)C(=O)O)C(=O)O)cc1 [[^177Lu]Lu-6R-RedFol-25, metal not drawn]
1.4 ± 0.1 % IA/g

---

Consider the following compounds; for each one, report its Kidneys, accumulated activity.
tested on: KB tumor-bearing athymic nude mice; assay: Biodistribution of 177Lu-RedFols in KB tumor-bearing mice; assay type: in vivo, mouse; conditions: 1 h p.i.
One number for each entry, in % IA/g.

[
  {
    "compound": "CN1c2c(nc(N)[nH]c2=O)NC[C@H]1CNc1ccc(C(=O)N[C@@H](CCC(=O)N[C@@H](CCCCNC(=O)CN2CCN(CC(=O)O)CCN(CC(=O)O)CCN(CC(=O)O)CC2)C(=O)N[C@@H](CCCCNC(=O)CCCCc2ccc(I)cc2)C(=O)O)C(=O)O)cc1 [[^177Lu]Lu-6R-RedFol-24, metal not drawn]",
    "Kidneys, accumulated activity (% IA/g)": 36
  }
]

// moving on: another record for Kidneys, accumulated activity
Request the reported Kidneys, accumulated activity associated with CN1c2c(nc(N)[nH]c2=O)NC[C@H]1CNc1ccc(C(=O)N[C@@H](CCC(=O)N[C@@H](CCCCNC(=O)CN2CCN(CC(=O)O)CCN(CC(=O)O)CCN(CC(=O)O)CC2)C(=O)N[C@@H](CCCCNC(=O)c2ccc(CNC(=O)CCCCc3ccc(I)cc3)cc2)C(=O)O)C(=O)O)cc1 [[^177Lu]Lu-6R-RedFol-25, metal not drawn]
22

---

Consider the following compounds; for each one, report its Tumor-to-blood ratio.
tested on: KB tumor-bearing athymic nude mice; experiment: Biodistribution of 177Lu-RedFols in KB tumor-bearing mice; format: in vivo, mouse; conditions: 4 h p.i.
Give bare numbers.

Past entries and their recorded results:
[
  {
    "compound": "CN1c2c(nc(N)[nH]c2=O)NC[C@H]1CNc1ccc(C(=O)N[C@@H](CCC(=O)N[C@@H](CCCCNC(=O)CN2CCN(CC(=O)O)CCN(CC(=O)O)CCN(CC(=O)O)CC2)C(=O)N[C@@H](CCCCNC(=O)CCCCc2ccc(I)cc2)C(=O)O)C(=O)O)cc1 [[^177Lu]Lu-6R-RedFol-24, metal not drawn]",
    "Tumor-to-blood ratio": 12
  },
  {
    "compound": "CN1c2c(nc(N)[nH]c2=O)NC[C@H]1CNc1ccc(C(=O)N[C@@H](CCC(=O)N[C@@H](CCCCNC(=O)CN2CCN(CC(=O)O)CCN(CC(=O)O)CCN(CC(=O)O)CC2)C(=O)N[C@@H](CCCCNC(=O)c2ccc(CNC(=O)CCCCc3ccc(I)cc3)cc2)C(=O)O)C(=O)O)cc1 [[^177Lu]Lu-6R-RedFol-25, metal not drawn]",
    "Tumor-to-blood ratio": 4.9
  },
  {
    "compound": "CN1c2c(nc(N)[nH]c2=O)NCC1CNc1ccc(C(=O)NC(CCC(=O)NC(CCCCNC(=O)CN2CCN(CC(=O)[O-])CCN(CC(=O)[O-])CCN(CC(=O)[O-])CC2)C(=O)NC(CCCCNC(=O)c2ccc(CNC(=O)CCCCc3ccc(I)cc3)cc2)C(=O)O)C(=O)O)cc1.[177Lu+3] (stereo not drawn) [[^177Lu]Lu-6S-RedFol-25]",
    "Tumor-to-blood ratio": 4.0
  },
  {
    "compound": "CN1c2c(nc(N)[nH]c2=O)NCC1CNc1ccc(C(=O)NC(CCC(=O)NC(CCCCNC(=O)CN2CCN(CC(=O)[O-])CCN(CC(=O)[O-])CCN(CC(=O)[O-])CC2)C(=O)NC(CCCCNC(=O)c2ccc(CNC(=O)CCCc3ccc(I)cc3)cc2)C(=O)O)C(=O)O)cc1.[177Lu+3] (stereo not drawn) [[^177Lu]Lu-6S-RedFol-3]",
    "Tumor-to-blood ratio": 1.1
  }
]

Request the reported Tumor-to-blood ratio associated with CN1c2c(nc(N)[nH]c2=O)NC[C@H]1CNc1ccc(C(=O)N[C@@H](CCC(=O)N[C@@H](CCCCNC(=O)CN2CCN(CC(=O)O)CCN(CC(=O)O)CCN(CC(=O)O)CC2)C(=O)N[C@@H](CCCCNC(=O)c2ccc(CNC(=O)CCCc3ccc(I)cc3)cc2)C(=O)O)C(=O)O)cc1 [[^177Lu]Lu-6R-RedFol-3, metal not drawn]
1.1

---

system: KB tumor-bearing athymic nude mice; assay: Biodistribution of 177Lu-RedFols in KB tumor-bearing mice; format: in vivo, mouse; conditions: 4 h p.i.
Lab note: cut-off is 3 % IA/g. Strictly less in Salivary glands, accumulated activity is Met. Exactly 3 % IA/g or more is Not met.

Please review the entries below; each comes with its answer.
[
  {
    "molecule": "CN1c2c(nc(N)[nH]c2=O)NCC1CNc1ccc(C(=O)NC(CCC(=O)NC(CCCCNC(=O)CN2CCN(CC(=O)[O-])CCN(CC(=O)[O-])CCN(CC(=O)[O-])CC2)C(=O)NC(CCCCNC(=O)c2ccc(CNC(=O)CCCc3ccc(I)cc3)cc2)C(=O)O)C(=O)O)cc1.[177Lu+3] (stereo not drawn) [[^177Lu]Lu-6S-RedFol-3]",
    "qualitativeLabel": "Met"
  },
  {
    "molecule": "CN1c2c(nc(N)[nH]c2=O)NC[C@H]1CNc1ccc(C(=O)N[C@@H](CCC(=O)N[C@@H](CCCCNC(=O)CN2CCN(CC(=O)O)CCN(CC(=O)O)CCN(CC(=O)O)CC2)C(=O)N[C@@H](CCCCNC(=O)c2ccc(CNC(=O)CCCc3ccc(I)cc3)cc2)C(=O)O)C(=O)O)cc1 [[^177Lu]Lu-6R-RedFol-3, metal not drawn]",
    "qualitativeLabel": "Not met"
  },
  {
    "molecule": "CN1c2c(nc(N)[nH]c2=O)NC[C@H]1CNc1ccc(C(=O)N[C@@H](CCC(=O)N[C@@H](CCCCNC(=O)CN2CCN(CC(=O)O)CCN(CC(=O)O)CCN(CC(=O)O)CC2)C(=O)N[C@@H](CCCCNC(=O)CCCCc2ccc(I)cc2)C(=O)O)C(=O)O)cc1 [[^177Lu]Lu-6R-RedFol-24, metal not drawn]",
    "qualitativeLabel": "Not met"
  },
  {
    "molecule": "CN1c2c(nc(N)[nH]c2=O)NC[C@H]1CNc1ccc(C(=O)N[C@@H](CCC(=O)N[C@@H](CCCCNC(=O)CN2CCN(CC(=O)O)CCN(CC(=O)O)CCN(CC(=O)O)CC2)C(=O)N[C@@H](CCCCNC(=O)c2ccc(CNC(=O)CCCCc3ccc(I)cc3)cc2)C(=O)O)C(=O)O)cc1 [[^177Lu]Lu-6R-RedFol-25, metal not drawn]",
    "qualitativeLabel": "Not met"
  }
]

Below: the item to evaluate.
I'd appreciate it if you could check whether CN1c2c(nc(N)[nH]c2=O)NCC1CNc1ccc(C(=O)NC(CCC(=O)NC(CCCCNC(=O)CN2CCN(CC(=O)[O-])CCN(CC(=O)[O-])CCN(CC(=O)[O-])CC2)C(=O)NC(CCCCNC(=O)c2ccc(CNC(=O)CCCCc3ccc(I)cc3)cc2)C(=O)O)C(=O)O)cc1.[177Lu+3] (stereo not drawn) [[^177Lu]Lu-6S-RedFol-25] has Salivary glands, accumulated activity smaller than 3 % IA/g.
Met
